target_desc: H1 (Homo sapiens)
Sequence (P35367 whole entry): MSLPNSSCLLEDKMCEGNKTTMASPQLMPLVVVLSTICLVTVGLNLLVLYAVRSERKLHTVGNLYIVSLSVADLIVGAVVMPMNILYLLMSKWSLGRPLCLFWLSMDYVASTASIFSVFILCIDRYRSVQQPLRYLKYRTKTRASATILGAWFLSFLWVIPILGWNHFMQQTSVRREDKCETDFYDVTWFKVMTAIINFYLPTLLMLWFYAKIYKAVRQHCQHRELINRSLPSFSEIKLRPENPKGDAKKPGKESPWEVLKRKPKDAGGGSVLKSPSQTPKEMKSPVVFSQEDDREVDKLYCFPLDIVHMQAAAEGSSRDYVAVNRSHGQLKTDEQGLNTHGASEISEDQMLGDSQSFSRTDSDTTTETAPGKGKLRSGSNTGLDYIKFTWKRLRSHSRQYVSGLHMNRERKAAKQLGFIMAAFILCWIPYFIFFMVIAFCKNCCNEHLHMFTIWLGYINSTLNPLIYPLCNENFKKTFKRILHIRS
experiment_summary: Radioligand binding assay (NIMH PDSP)
measurement_conditions: secondary screen, binding competition curve; read-out: Ki
readout_name: pKi
Please express pKi as -log10 of the molar concentration.

Need pKi of CS(=O)(=O)Nc1ccc(OC[C@@H](O)CN2CCN(c3ccc(F)c(F)c3)CC2)cc1 [EU93-108] , thanks.
6.60

----------
target_desc: 5-HT2B (Homo sapiens, UniProt P41595)
Sequence (P41595 whole entry): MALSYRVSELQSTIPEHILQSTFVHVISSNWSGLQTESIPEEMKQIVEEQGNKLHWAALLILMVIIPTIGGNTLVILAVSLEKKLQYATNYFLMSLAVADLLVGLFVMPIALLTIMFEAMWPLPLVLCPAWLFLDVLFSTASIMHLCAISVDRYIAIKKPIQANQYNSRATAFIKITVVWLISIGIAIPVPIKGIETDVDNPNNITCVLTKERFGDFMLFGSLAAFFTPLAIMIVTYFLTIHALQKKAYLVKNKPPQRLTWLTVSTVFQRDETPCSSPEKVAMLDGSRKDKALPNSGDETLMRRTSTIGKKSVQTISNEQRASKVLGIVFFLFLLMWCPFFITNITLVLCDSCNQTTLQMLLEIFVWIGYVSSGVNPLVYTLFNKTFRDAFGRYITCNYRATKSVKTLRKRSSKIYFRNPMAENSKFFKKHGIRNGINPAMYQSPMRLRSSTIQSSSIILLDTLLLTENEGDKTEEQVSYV
readout_name: Ki (nM)
Write the number in nM without appending the unit.

Need Ki of CS(=O)(=O)Nc1ccc(OC[C@@H](O)CN2CCN(c3ccc(F)c(F)c3)CC2)cc1 , thanks.
976

----------
experiment_summary: in vivo
Design: species or system mice
measurement_conditions: female, C57BL/6J, mouse, ip
readout_name: ED50 at 1 h
# include the unit after the value

Need ED50 at 1 h of CS(=O)(=O)Nc1ccc(OC[C@@H](O)CN2CCN(c3ccc(F)c(F)c3)CC2)cc1 [EU93-108] , thanks.
15.2 mg/kg

----------
target_desc: diheteromeric rat GluN1/GluN2Bc1/GluN2Bc2 (r2Bc1/r2Bc2) (Rattus norvegicus, UniProt P35439+Q00959+Q00960, A876H/F846L/G856D/H848F/K857R/M851T/M860L/Q845K/V861L)
experiment_summary: Concentration-inhibition curves, oocytes, C1/C2-tagged NMDARs
measurement_conditions: 100 μM glutamate and 100 μM glycine, −40 mV, pH 7.4; n = 8
readout_name: pIC50
Please express pIC50 as -log10 of the molar concentration.

Need pIC50 of CS(=O)(=O)Nc1ccc(OC[C@@H](O)CN2CCN(c3ccc(F)c(F)c3)CC2)cc1 , thanks.
6.63

----------
experiment_summary: Determination of plasma and brain concentrations
Assay type: in vivo
measurement_conditions: Sprague-Dawley, rat, brain (forebrain homogenate) / plasma, ip; male rats; 60 mg/kg i.p.; from Cmax; read-out: brain-to-plasma ratio
readout_name: Kp at 60 min

Need Kp at 60 min of CS(=O)(=O)Nc1ccc(OC[C@@H](O)CN2CCN(c3ccc(F)c(F)c3)CC2)cc1 , thanks.
0.6

----------
experiment_summary: Determination of plasma and brain concentrations
Format: in vivo
measurement_conditions: Sprague-Dawley, rat, plasma, ip; male rats; 60 mg/kg i.p.; read-out: Cmax in plasma
readout_name: Cmax (µM)
Write the number in µM without appending the unit.

Need Cmax of CS(=O)(=O)Nc1ccc(OC[C@@H](O)CN2CCN(c3ccc(F)c(F)c3)CC2)cc1 [EU93-108] , thanks.
30

----------
target_desc: 5-HT2C (Homo sapiens, UniProt P28335)
Sequence (P28335 33-458): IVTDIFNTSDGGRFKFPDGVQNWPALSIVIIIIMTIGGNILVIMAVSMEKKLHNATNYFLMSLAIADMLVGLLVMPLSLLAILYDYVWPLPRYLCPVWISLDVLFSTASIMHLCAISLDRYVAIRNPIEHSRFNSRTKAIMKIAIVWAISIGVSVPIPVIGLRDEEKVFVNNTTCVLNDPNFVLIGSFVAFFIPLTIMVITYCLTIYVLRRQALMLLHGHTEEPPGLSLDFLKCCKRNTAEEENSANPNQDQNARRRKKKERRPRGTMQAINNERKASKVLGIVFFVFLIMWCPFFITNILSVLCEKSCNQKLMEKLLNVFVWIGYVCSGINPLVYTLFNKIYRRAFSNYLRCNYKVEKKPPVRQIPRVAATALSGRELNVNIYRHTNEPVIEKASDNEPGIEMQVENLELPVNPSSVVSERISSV
readout_name: Ki (nM)
Write the number in nM without appending the unit.

Need Ki of CS(=O)(=O)Nc1ccc(OC[C@@H](O)CN2CCN(c3ccc(F)c(F)c3)CC2)cc1 , thanks.
1820

----------
target_desc: Sigma1 (σ1) (Homo sapiens, UniProt Q99720)
Sequence (Q99720 whole entry): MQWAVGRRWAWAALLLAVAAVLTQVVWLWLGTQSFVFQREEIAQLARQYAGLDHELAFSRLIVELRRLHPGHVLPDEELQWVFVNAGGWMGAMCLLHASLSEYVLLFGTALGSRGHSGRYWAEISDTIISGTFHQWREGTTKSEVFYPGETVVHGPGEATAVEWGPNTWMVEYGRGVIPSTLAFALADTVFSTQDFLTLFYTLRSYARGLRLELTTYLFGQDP
readout_name: pKi
Please express pKi as -log10 of the molar concentration.

Need pKi of CS(=O)(=O)Nc1ccc(OC[C@@H](O)CN2CCN(c3ccc(F)c(F)c3)CC2)cc1 [EU93-108] , thanks.
6.30

----------
target_desc: diheteromeric human GluN1/GluN2B/GluN2B (h2B/h2B) (Homo sapiens, UniProt Q05586+Q13224)
Sequence (Q13224 27-1484, other chains not shown): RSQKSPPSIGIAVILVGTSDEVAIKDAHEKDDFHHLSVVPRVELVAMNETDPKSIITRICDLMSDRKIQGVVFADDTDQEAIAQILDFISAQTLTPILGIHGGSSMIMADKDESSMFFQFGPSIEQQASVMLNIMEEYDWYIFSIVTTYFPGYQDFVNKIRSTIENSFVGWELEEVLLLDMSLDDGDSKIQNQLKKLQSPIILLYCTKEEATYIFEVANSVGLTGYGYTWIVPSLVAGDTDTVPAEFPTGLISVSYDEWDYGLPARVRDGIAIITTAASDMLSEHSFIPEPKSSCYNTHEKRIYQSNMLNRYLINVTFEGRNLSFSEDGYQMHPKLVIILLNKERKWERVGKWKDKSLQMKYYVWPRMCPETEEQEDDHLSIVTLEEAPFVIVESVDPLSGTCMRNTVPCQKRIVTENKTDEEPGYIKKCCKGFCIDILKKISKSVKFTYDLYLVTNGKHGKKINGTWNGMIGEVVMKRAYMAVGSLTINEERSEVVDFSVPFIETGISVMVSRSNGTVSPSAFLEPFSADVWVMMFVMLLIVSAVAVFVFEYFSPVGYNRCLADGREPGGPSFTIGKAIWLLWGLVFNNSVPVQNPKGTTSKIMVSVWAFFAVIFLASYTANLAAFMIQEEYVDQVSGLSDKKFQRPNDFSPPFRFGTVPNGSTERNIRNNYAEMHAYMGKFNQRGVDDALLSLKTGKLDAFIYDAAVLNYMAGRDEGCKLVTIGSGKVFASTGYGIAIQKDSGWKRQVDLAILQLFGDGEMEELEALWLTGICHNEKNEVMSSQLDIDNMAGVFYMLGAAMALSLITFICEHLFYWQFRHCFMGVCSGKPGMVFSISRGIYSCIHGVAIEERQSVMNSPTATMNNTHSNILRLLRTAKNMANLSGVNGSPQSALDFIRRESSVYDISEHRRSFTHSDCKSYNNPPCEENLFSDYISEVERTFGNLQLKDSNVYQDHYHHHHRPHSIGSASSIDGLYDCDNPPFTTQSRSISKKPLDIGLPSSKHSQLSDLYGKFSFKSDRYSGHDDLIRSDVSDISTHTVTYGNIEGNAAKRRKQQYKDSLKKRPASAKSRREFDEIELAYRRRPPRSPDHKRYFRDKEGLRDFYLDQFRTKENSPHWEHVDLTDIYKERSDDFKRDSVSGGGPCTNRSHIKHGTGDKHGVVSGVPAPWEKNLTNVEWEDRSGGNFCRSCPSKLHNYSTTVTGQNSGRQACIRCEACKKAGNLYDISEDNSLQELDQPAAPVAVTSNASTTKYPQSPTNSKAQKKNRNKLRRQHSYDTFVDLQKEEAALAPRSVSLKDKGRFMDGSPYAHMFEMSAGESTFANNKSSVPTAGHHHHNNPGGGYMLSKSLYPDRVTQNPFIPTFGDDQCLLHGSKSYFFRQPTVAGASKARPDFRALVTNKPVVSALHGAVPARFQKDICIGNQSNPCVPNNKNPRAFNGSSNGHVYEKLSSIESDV
experiment_summary: Concentration-inhibition curves, oocytes
readout_name: IC50 (nM)
Write the number in nM without appending the unit.

Fill in the recorded IC50 for this compound, with diheteromeric human GluN1/GluN2B/GluN2B (h2B/h2B) (Homo sapiens, UniProt Q05586+Q13224) as test system: CS(=O)(=O)Nc1ccc(OC[C@@H](O)CN2CCN(c3ccc(F)c(F)c3)CC2)cc1
261

----------
Target sequence: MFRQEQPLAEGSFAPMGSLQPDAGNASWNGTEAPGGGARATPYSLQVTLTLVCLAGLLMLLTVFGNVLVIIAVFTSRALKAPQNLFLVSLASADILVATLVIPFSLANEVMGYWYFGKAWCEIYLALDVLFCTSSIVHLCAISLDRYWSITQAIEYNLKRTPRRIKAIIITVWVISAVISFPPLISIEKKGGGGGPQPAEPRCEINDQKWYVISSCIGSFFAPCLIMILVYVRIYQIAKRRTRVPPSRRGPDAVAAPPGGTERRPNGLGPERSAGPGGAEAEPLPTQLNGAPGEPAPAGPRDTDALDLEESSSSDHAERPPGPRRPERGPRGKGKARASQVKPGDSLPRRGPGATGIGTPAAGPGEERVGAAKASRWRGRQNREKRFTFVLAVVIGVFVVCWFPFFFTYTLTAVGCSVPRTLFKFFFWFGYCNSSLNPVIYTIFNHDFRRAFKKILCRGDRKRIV
readout_name: pKi
Please express pKi as -log10 of the molar concentration.

Need pKi of CS(=O)(=O)Nc1ccc(OC[C@@H](O)CN2CCN(c3ccc(F)c(F)c3)CC2)cc1 , thanks.
5.94

----------
target_desc: Alpha1D (α1D) (Homo sapiens)
Sequence (P25100 1-572): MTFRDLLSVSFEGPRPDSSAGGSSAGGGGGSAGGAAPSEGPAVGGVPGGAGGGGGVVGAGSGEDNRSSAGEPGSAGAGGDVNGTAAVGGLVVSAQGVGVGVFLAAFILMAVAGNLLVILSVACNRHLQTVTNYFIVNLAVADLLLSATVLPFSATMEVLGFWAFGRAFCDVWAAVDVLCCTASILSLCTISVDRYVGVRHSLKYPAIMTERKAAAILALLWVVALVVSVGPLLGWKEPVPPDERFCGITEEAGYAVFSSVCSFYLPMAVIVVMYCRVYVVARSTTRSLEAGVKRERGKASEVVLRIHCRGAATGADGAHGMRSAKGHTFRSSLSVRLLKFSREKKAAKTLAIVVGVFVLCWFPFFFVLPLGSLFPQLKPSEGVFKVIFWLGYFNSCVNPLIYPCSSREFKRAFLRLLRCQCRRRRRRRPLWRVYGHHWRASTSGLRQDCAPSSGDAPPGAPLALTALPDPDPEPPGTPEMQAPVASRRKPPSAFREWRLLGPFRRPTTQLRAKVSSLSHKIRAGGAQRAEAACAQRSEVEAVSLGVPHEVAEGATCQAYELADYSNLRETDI
readout_name: pKi
Please express pKi as -log10 of the molar concentration.

Need pKi of CS(=O)(=O)Nc1ccc(OC[C@@H](O)CN2CCN(c3ccc(F)c(F)c3)CC2)cc1 [EU93-108] , thanks.
6.44

----------
experiment_summary: in vivo
Parameters: species or system mice
measurement_conditions: male, C57BL/6J, mouse, ip
readout_name: ED50 at 1 h
# include the unit after the value

Need ED50 at 1 h of CS(=O)(=O)Nc1ccc(OC[C@@H](O)CN2CCN(c3ccc(F)c(F)c3)CC2)cc1 [EU93-108] , thanks.
13.5 mg/kg

----------
experiment_summary: Determination of plasma and brain concentrations
Type: in vivo
measurement_conditions: Sprague-Dawley, rat, brain (whole forebrain homogenate), ip; male rats; 60 mg/kg i.p.; whole forebrain homogenate; read-out: Cmax in brain
readout_name: Cmax (µM)
Write the number in µM without appending the unit.

Need Cmax of CS(=O)(=O)Nc1ccc(OC[C@@H](O)CN2CCN(c3ccc(F)c(F)c3)CC2)cc1 , thanks.
18

----------
target_desc: Alpha1A (α1A) (Homo sapiens, UniProt P35348)
Sequence (P35348 whole entry): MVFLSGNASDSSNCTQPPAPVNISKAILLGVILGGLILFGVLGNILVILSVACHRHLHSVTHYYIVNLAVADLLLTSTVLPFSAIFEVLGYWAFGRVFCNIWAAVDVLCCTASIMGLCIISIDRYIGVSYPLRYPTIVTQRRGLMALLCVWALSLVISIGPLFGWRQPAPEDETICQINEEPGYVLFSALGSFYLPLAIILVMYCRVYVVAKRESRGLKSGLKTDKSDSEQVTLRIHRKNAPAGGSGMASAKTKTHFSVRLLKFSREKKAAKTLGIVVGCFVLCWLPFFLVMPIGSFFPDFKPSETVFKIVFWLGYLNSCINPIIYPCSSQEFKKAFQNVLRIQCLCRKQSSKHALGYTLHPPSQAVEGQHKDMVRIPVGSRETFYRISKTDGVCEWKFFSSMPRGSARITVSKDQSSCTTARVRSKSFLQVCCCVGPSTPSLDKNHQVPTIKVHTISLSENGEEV
readout_name: pKi
Please express pKi as -log10 of the molar concentration.

Need pKi of CS(=O)(=O)Nc1ccc(OC[C@@H](O)CN2CCN(c3ccc(F)c(F)c3)CC2)cc1 [EU93-108] , thanks.
6.77

----------
target_desc: Alpha2C (α2C) (Homo sapiens, UniProt P18825)
Sequence (P18825 whole entry): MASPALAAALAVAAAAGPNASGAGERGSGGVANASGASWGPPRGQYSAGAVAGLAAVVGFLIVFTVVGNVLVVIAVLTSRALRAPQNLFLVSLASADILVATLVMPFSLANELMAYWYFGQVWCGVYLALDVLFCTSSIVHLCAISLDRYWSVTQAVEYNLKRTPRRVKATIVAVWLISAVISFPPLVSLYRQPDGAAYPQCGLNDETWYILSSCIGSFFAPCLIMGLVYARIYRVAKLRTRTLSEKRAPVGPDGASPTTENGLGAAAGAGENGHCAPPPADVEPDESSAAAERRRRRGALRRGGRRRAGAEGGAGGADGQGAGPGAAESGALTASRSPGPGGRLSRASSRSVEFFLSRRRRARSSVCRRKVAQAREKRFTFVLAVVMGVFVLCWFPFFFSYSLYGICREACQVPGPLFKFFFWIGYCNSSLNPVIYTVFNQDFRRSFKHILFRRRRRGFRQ
readout_name: Ki
# include the unit after the value

Fill in the recorded Ki for this compound, with Alpha2C (α2C) (Homo sapiens, UniProt P18825) as test system: CS(=O)(=O)Nc1ccc(OC[C@@H](O)CN2CCN(c3ccc(F)c(F)c3)CC2)cc1
0.862 µM
